Each entry below carries its reported Kd.
Biological target: UniProt:Q96SW2
Sequence (Q96SW2 318-426 limits assumed): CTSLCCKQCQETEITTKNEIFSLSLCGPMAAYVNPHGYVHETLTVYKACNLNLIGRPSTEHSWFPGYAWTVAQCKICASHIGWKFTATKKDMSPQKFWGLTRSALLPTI
Test: Fluorescence polarization (FP) binding assay, CRBN_DDB1.3 construct
Conditions: 0.05% PA, 0.1% BSA; indoline binders; read-out: FP CRBN_DDB1.3 0.05% PA, 0.1% BSA ka nM
readout name: Kd

> print(dat)
                                    molecule  value.measured
 1  CC(C)(C)OC(=O)N1CCC(c2c(F)ccc3c2CCN3[C@@H]2CCC(=O)NC2=O)CC1 (single isomer, unassigned)     < 100000 nM
 2  CC(C)(C)OC(=O)N1CCC(c2c(F)cc3c(c2F)CCN3[C@H]2CCC(=O)NC2=O)CC1 (single isomer, unassigned)     < 100000 nM
 3  CC(C)(C)OC(=O)C1CCN(Cc2cccc3c2CCN3[C@@H]2CCC(=O)NC2=O)CC1 (single isomer, unassigned)     < 100000 nM
 4  CN(C(=O)OC(C)(C)C)[C@H]1CC[C@@H](c2c(F)cc3c(c2F)CCN3[C@@H]2CCC(=O)NC2=O)CC1 (single isomer, unassigned)     < 100000 nM
 5  CC(C)(C)OC(=O)N1CCC(c2ccc3c(c2F)CCN3[C@@H]2CCC(=O)NC2=O)CC1 (single isomer, unassigned)     < 100000 nM
 6  CN(C(=O)OC(C)(C)C)C1CCN(c2cccc3c2CCN3C2CCC(=O)NC2=O)CC1 (racemic)     < 100000 nM
 7  CC(C)(C)OC(=O)N1CCC(c2ccc3c(c2)CCN3[C@H]2CCC(=O)NC2=O)CC1 (single isomer, unassigned)     < 100000 nM
 8  CC(C)(C)OC(=O)N1CCC(c2ccc3c(c2F)CCN3[C@H]2CCC(=O)NC2=O)CC1 (single isomer, unassigned)     < 100000 nM
 9  O=C1CC[C@H](N2CCc3c(N4CCC5(CC4)OCCO5)cccc32)C(=O)N1 (single isomer, unassigned)       < 1000 nM
10  CC(C)(C)OC(=O)CC1CCN(c2cccc3c2CCN3[C@H]2CCC(=O)NC2=O)CC1 (single isomer, unassigned)     < 100000 nM
11  CC(C)(C)OC(=O)N1CCC(c2ccc3c(c2)CCN3[C@@H]2CCC(=O)NC2=O)CC1 (single isomer, unassigned)       < 1000 nM
12  O=C1CC[C@@H](N2CCc3c(N4CCC(CO)CC4)cccc32)C(=O)N1 (single isomer, unassigned)     < 100000 nM
13  CN(C(=O)OC(C)(C)C)[C@H]1CC[C@H](c2c(F)cc3c(c2F)CCN3[C@H]2CCC(=O)NC2=O)CC1 (single isomer, unassigned)     < 100000 nM
14  CC(C)(C)OC(=O)CC1CCN(c2cccc3c2CCN3[C@@H]2CCC(=O)NC2=O)CC1 (single isomer, unassigned)       < 1000 nM
15  CC(C)(C)OC(=O)C1CCN(c2cccc3c2CCN3[C@H]2CCC(=O)NC2=O)CC1 (single isomer, unassigned)     < 100000 nM
16  CC(C)(C)OC(=O)N1CC[C@H]2CN(c3cccc4c3CCN4[C@H]3CCC(=O)NC3=O)CC[C@H]21 (single isomer, unassigned)     < 100000 nM
17  CC(C)(C)OC(=O)N1CCC(c2c(F)cc3c(c2F)CCN3[C@@H]2CCC(=O)NC2=O)CC1 (single isomer, unassigned)     < 100000 nM
18  O=C1CCC(N2CCc3c(N4CCC(C(F)(F)CO)CC4)cccc32)C(=O)N1 (stereo not drawn)     < 100000 nM
19  CC(C)(C)OC(=O)N1CC[C@@H]2CN(c3cccc4c3CCN4[C@@H]3CCC(=O)NC3=O)CC[C@@H]21 (single isomer, unassigned)       < 1000 nM
20  O=C1CC[C@H](N2CCc3c(N4CCC(CO)CC4)cccc32)C(=O)N1 (single isomer, unassigned)       < 1000 nM
21  CC(C)(C)OC(=O)N1CC[C@@H]2CN(c3cccc4c3CCN4[C@H]3CCC(=O)NC3=O)CC[C@@H]21 (single isomer, unassigned)     < 100000 nM
22  CN(C(=O)OC(C)(C)C)[C@H]1CC[C@H](c2c(F)ccc3c2CCN3C2CCC(=O)NC2=O)CC1 (single isomer, unassigned)     < 100000 nM
23  CC(C)(C)OC(=O)C1CCN(c2cccc3c2CCN3[C@@H]2CCC(=O)NC2=O)CC1 (single isomer, unassigned)     < 100000 nM
24  CC(C)(C)OC(=O)N1CCC(c2c(F)ccc3c2CCN3[C@H]2CCC(=O)NC2=O)CC1 (single isomer, unassigned)     < 100000 nM
